- study target: Neprilysin (Homo sapiens, UniProt P08473)
- Sequence (P08473 whole entry): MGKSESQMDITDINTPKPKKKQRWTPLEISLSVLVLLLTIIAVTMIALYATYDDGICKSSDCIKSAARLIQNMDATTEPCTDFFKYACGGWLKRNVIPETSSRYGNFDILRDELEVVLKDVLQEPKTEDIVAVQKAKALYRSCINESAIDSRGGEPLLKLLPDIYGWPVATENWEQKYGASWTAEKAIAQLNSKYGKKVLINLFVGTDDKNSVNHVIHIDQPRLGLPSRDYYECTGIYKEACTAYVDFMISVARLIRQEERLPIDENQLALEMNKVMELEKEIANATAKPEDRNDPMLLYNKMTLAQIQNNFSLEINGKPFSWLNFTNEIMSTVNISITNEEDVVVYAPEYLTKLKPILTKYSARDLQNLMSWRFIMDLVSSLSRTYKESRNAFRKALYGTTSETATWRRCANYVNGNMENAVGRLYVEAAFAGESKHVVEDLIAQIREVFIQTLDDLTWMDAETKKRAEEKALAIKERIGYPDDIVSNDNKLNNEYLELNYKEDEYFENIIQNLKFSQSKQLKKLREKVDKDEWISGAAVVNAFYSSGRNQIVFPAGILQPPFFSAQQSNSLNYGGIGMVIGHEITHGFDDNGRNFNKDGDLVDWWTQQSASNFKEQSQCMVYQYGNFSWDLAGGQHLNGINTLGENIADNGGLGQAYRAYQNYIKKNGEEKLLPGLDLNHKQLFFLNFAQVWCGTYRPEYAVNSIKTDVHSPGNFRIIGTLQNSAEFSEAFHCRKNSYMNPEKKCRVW
metric name: pIC50
Answers are plain numbers, as −log10 of the molar value.

Entry CC(C)C[C@H](NP(=O)(O)O[C@@H]1O[C@@H](C)[C@H](O)[C@@H](O)[C@H]1O)C(=O)N[C@@H](Cc1c[nH]c2ccccc12)C(=O)O under Neprilysin (Homo sapiens, UniProt P08473) had pIC50 of 7.52

###

- study target: Endothelin-converting enzyme 1 (Homo sapiens)
- assay explanation: In vitro inhibition to recombinant human endothelin converting enzyme
- Set-up: concentration or dose not given beside the values
- setup conditions: concentration not given here
Would you mind telling me the reported inhibition of each entry?
Give bare numbers, in %.

Examples with answers:
| molecule | study target | experimental result |
| --- | --- | --- |
| O=P(O)(O)CN[C@@H](Cc1ccc(-c2ccccc2)cc1)c1nn[nH]n1 | Endothelin-converting enzyme 1 (Homo sapiens) | 79 |
| O=C(O)C[C@H](Cc1ccc(-c2ccccc2)cc1)NCP(=O)(O)O | Endothelin-converting enzyme 1 (Homo sapiens) | 0 |
| O=P(O)(O)C(N[C@H](Cc1ccc(-c2ccccc2)cc1)c1nnn[nH]1)c1cccc2ccccc12 (stereo not given in full) | Endothelin-converting enzyme 1 (Homo sapiens) | 49 |

I have 5 molecules here; please give me inhibition for each one.
1. O=P(O)(O)C(Cc1cccc2cccnc12)N[C@@H](Cc1ccc(-c2ccccc2)cc1)c1nnn[nH]1 (stereo not given in full)
2. O=P(O)(O)C(Cc1ccc2ccccc2c1)N[C@H](Cc1ccc(-c2ccccc2)cc1)c1nnn[nH]1 (stereo not given in full)
3. O=P(O)(O)C(Cc1ccccc1)N[C@@H](Cc1ccc(-c2ccccc2)cc1)c1nnn[nH]1 (stereo not given in full)
4. O=P(O)(O)CN[C@@H](CCc1ccccc1)c1nnn[nH]1
5. O=P(O)(O)CN[C@@H](Cc1ccc(-c2ccccc2)cc1)c1nc[nH]n1

1: 93; 2: 47; 3: 83; 4: 0; 5: 0

I have 2 molecules here; please give me inhibition for each one.
1. O=P(O)(O)CC(Cc1ccc(-c2ccccc2)cc1)c1nnn[nH]1 (stereo not given)
2. SCC(Cc1ccc(-c2ccccc2)cc1)c1nnn[nH]1 (stereo not given)

1: 8; 2: 26
